So I've got a bunch of compounds here, and I need their Ht values.
Organism: Rattus norvegicus
assay: Open TG-GATES - Regimen: Daily Repeat
Assay type: toxicity, organism-based, Sprague-Dawley
Set-up: regimen Daily Repeat, gender Male, age 6 weeks
experimental.conditions: in vivo, po, 0 mg/kg, […], tissue Blood, route gavage, dose level Control, time 14 day
Give bare numbers, in %.

Example results:
> print(dat)
                                   compound  meas.value
1  C=C(C)[C@H]1Cc2c(ccc3c2O[C@@H]2COc4cc(OC)c(OC)cc4[C@@H]2C3=O)O1 [ROTENONE]        41.9
2  O=[N+]([O-])c1ccc(O)c([N+](=O)[O-])c1 [2,4-DINITROPHENOL]        40.7
3  C[C@H]1C(=O)O[C@@H]2CCN3CC=C(COC(=O)[C@](C)(O)[C@]1(C)O)[C@H]23 [MONOCROTALINE]        39.6
4  Cc1cccc(C)c1OCC(C)N (stereo not given) [MEXILETINE]        39.4

Proceed to the following item.
Request the reported Ht associated with Cn1cc[nH]c1=S [METHIMAZOLE]
39.4
